- EXPERIMENTAL SYSTEM: Lon protease (Escherichia coli (strain K12)) (UniProt P0A9M0)
- Sequence (P0A9M0 whole entry, looked up): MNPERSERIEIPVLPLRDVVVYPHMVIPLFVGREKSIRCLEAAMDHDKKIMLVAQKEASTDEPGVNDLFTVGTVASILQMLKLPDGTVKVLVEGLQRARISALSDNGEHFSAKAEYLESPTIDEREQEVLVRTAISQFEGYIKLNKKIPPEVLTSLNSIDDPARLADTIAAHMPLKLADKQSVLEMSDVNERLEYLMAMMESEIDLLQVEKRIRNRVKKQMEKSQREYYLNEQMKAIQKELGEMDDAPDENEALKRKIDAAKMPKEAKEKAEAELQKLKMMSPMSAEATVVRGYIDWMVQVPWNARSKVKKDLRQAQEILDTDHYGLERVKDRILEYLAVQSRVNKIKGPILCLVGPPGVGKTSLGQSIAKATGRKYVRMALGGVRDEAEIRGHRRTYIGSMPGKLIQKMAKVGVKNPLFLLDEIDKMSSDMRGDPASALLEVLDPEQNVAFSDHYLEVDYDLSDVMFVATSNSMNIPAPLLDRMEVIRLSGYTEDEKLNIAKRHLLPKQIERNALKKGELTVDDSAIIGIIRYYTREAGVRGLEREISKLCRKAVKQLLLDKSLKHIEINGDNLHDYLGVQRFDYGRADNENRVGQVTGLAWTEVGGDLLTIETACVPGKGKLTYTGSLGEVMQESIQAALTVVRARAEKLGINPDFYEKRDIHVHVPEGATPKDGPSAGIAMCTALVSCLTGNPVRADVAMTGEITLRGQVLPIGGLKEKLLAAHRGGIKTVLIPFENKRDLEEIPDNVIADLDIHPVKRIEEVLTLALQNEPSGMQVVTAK
- ASSAY REMARKS: inhibitors of E. coli Lon protease, primary screen, biochemical, fluorescence polarization (AID 602123);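 note: 0% = enzyme with probe and DMSO and 100% = no enzyme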
- PROTOCOL CONDITIONS: purified E. coli Lon protease, at 7.94 µM, active compounds read high
Screen size: about 360,000 compounds; about 1,500 (0.42%) were called active. The full list was thinned out, with actives kept by preference.
QUANTITY MEASURED: inhibition (%)

{"columns": ["COMPOUND", "EXPERIMENTAL SYSTEM", "QUANTITY MEASURED", "VALUE OBSERVED"],
 "data": [
  ["C/C(=N/NC(=O)CSc1ccccn1)c1ccc([N+](=O)[O-])cc1", "Lon protease (Escherichia coli (strain K12)) (UniProt P0A9M0)", "inhibition", -0.59],
  ["CCOC(=O)N1CCN(C(=O)C[C@@H]2C[C@@]3(C(=O)OC)CCCCC=C3N(CCC3=CCCCC3)C2=O)CC1", "Lon protease (Escherichia coli (strain K12)) (UniProt P0A9M0)", "inhibition", 4.15],
  ["COc1ccc(CC(=O)Nc2ccc(-c3nnc(-c4ccccc4)o3)cc2)cc1", "Lon protease (Escherichia coli (strain K12)) (UniProt P0A9M0)", "inhibition", 27.1],
  ["O=c1oc2ccccc2c(CNc2ccccc2)c1[N+](=O)[O-]", "Lon protease (Escherichia coli (strain K12)) (UniProt P0A9M0)", "inhibition", -5.51],
  ["COc1ccc(Nc2nc(-c3cccnc3)nc3ccccc23)cn1", "Lon protease (Escherichia coli (strain K12)) (UniProt P0A9M0)", "inhibition", 51.2],
  ["Clc1ccc2c(c1)C1=C(C(c3ccncc3)O2)C(c2ccc(Br)cc2)n2ncnc2N1 (stereo unspecified)", "Lon protease (Escherichia coli (strain K12)) (UniProt P0A9M0)", "inhibition", 0.69],
  ["Brc1ccc(C2=CC(c3ccco3)n3ncnc3N2)cc1 (stereo unspecified)", "Lon protease (Escherichia coli (strain K12)) (UniProt P0A9M0)", "inhibition", 189],
  ["COc1ccc(C)cc1S(=O)(=O)Nc1cc2c3c(c1)CCC(=O)N3CCC2", "Lon protease (Escherichia coli (strain K12)) (UniProt P0A9M0)", "inhibition", 0.26],
  ["COc1ccc(NC(=O)CSc2nnc(Cc3ccccc3)c(=O)n2N)cc1", "Lon protease (Escherichia coli (strain K12)) (UniProt P0A9M0)", "inhibition", 1.33],
  ["CCCCOCCCNC(=O)C[C@@H]1C[C@@]2(C(=O)OC)CCCCC=C2N(CCC2=CCCCC2)C1=O", "Lon protease (Escherichia coli (strain K12)) (UniProt P0A9M0)", "inhibition", 14.4],
  ["COc1ccc(C(=O)NCC(c2ccco2)N2CCc3ccccc32)cc1OC (stereo unspecified)", "Lon protease (Escherichia coli (strain K12)) (UniProt P0A9M0)", "inhibition", 4.85],
  ["CCCCOP(=O)(c1ccc(N(C)C)cc1)C(O)c1cc(OC)ccc1OC (stereo unspecified)", "Lon protease (Escherichia coli (strain K12)) (UniProt P0A9M0)", "inhibition", 9.34],
  ["COC(=O)[C@]12CCCCC=C1N(CCC1=CCCCC1)C(=O)[C@H](CC(=O)NCC1CCCCC1)C2", "Lon protease (Escherichia coli (strain K12)) (UniProt P0A9M0)", "inhibition", -2.93],
  ["CCN(CC)C(=O)CSc1nnc(-c2cnccn2)n1-c1ccc(C)cc1", "Lon protease (Escherichia coli (strain K12)) (UniProt P0A9M0)", "inhibition", -8.84],
  ["C[C@@H]1CN([C@H](C)CO)C(=O)CCCn2nncc2CO[C@@H]1CN(C)C(=O)OCc1ccccc1", "Lon protease (Escherichia coli (strain K12)) (UniProt P0A9M0)", "inhibition", -12.2],
  ["O=C(NCCOc1cccnc1)c1ccc(OC2CCN(Cc3ccccn3)CC2)cc1", "Lon protease (Escherichia coli (strain K12)) (UniProt P0A9M0)", "inhibition", 6.74],
  ["COc1ccc(-c2nc(CS(=O)CC(=O)NCc3cccnc3)c(C)o2)cc1OC (stereo unspecified)", "Lon protease (Escherichia coli (strain K12)) (UniProt P0A9M0)", "inhibition", -14.5],
  ["Cc1cc(C)n(Cc2cnc(N3CCOCC3)s2)n1", "Lon protease (Escherichia coli (strain K12)) (UniProt P0A9M0)", "inhibition", -9.37],
  ["O=C(CSc1n[nH]c(-c2cccnc2)n1)Nc1ccnc2ccccc12", "Lon protease (Escherichia coli (strain K12)) (UniProt P0A9M0)", "inhibition", -1.63],
  ["COc1cc(NC(=O)COC(=O)c2cnc(C)cn2)c(C)cc1[N+](=O)[O-]", "Lon protease (Escherichia coli (strain K12)) (UniProt P0A9M0)", "inhibition", -4.63],
  ["COc1cc(CNCc2ccc3c(c2)OCO3)c([N+](=O)[O-])cc1OC", "Lon protease (Escherichia coli (strain K12)) (UniProt P0A9M0)", "inhibition", -8.35]
]}

====

- EXPERIMENTAL SYSTEM: Lon protease (Escherichia coli (strain K12)) (UniProt P0A9M0)
- ASSAY REMARKS: inhibitors of E. coli Lon protease, primary screen, biochemical, fluorescence polarization (AID 602123);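 note: 0% = enzyme with probe and DMSO and 100% = no enzyme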
- PROTOCOL CONDITIONS: purified E. coli Lon protease, at 7.94 µM
The whole screen tested about 360,000 compounds, of which about 1,500 (0.42%) were called active. Cut-off read from the data, not from the text of the source: active = inhibition above about 13% (passing the limit was not always enough); inactive = the rest. The sample as a whole holds a higher share of actives than the screen did.
Outcome codes: Yes for active, No for inactive

{"columns": ["MOLECULE", "CATEGORY LABEL"],
 "data": [
  ["COC(=O)c1cccc(N(C(=O)c2ccco2)C(C(=O)NC2CCCC2)c2ccco2)c1 (stereo not drawn)", "No"],
  ["COCCn1c(SCC(=O)Nc2nc(C)cs2)nnc1C(C)C", "No"],
  ["CCN1CCN(C(=O)CN(C)S(=O)(=O)c2ccc3ccccc3c2)CC1", "No"],
  ["COC(=O)c1sccc1-n1cccc1C(=O)C(=O)N1CCCCC1", "No"],
  ["COc1ccc(Cl)cc1-n1c(C)cc(C(=O)OCC(=O)N2CC(=O)Nc3ccccc32)c1C", "No"],
  ["O=S(=O)([N-]c1nc2ccccc2nc1-[n+]1ccc(Cc2ccccc2)cc1)c1ccc(Br)s1", "Yes"],
  ["Cc1sc(NC(=S)NC(=O)c2cccs2)nc1-c1ccc(CC(C)C)cc1", "No"],
  ["O=C(COc1ccc(/C=N/NS(=O)(=O)c2ccccc2)cc1)NCCc1ccccc1", "No"],
  ["O=C(COC(=O)c1ccccc1C(=O)N1CCN(c2ccccc2)CC1)NCc1ccccc1", "Yes"],
  ["O=S(=O)(NCc1ccccn1)c1ccc(Br)s1", "No"],
  ["COc1cc(NC(=O)Nc2ccc(C)cc2)cc([N+](=O)[O-])c1", "No"],
  ["CCc1cc2c(=O)c(-c3ccon3)c(N)oc2cc1OC", "No"],
  ["COc1ccc(S(=O)(=O)N2CCCCC2c2cc(C(=O)NCc3ccc(F)cc3)no2)cc1 (stereo not drawn)", "No"],
  ["COc1ccc(Nc2ccc([N+](=O)[O-])cn2)cn1", "Yes"],
  ["Cn1c(C(=O)OC(C(=O)NC2CCCCC2)c2ccccn2)cc2sccc21 (stereo not drawn)", "No"],
  ["Cn1nc(C(F)(F)F)c2cc(NC(=O)OCC(C)(C)C)sc21", "No"],
  ["Oc1ccc2ccccc2c1N=Nc1nccs1", "Yes"],
  ["CCCn1c(SCC(=O)c2ccc3c(c2)OCCO3)nnc1C(C)C", "No"],
  ["COC(=O)c1ccccc1N=NNc1ccc([N+](=O)[O-])cc1", "No"],
  ["COc1ccc(COC(=O)N/N=C(\\C)CC(=O)Nc2ccc(Cl)cc2)cc1", "No"],
  ["Oc1ccc(N=Cc2sc3ccccc3c2Cl)cc1", "Yes"],
  ["CCC(C)c1ccc(NC(=S)NCc2ccccn2)cc1 (stereo not drawn)", "No"],
  ["CCCCCCCCOC1OC(CO)C(O)C(O)C1NC(C)=O (stereo not drawn)", "No"]
]}

====

- EXPERIMENTAL SYSTEM: Lon protease (Escherichia coli (strain K12)) (UniProt P0A9M0)
- ASSAY REMARKS: inhibitors of E. coli Lon protease, primary screen, biochemical, fluorescence polarization (AID 602123);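 note: 0% = enzyme with probe and DMSO and 100% = no enzyme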
- PROTOCOL CONDITIONS: purified E. coli Lon protease, at 7.94 µM, active compounds read high
The campaign covered roughly 360,000 compounds. About 1,500 (0.42%) were called active. The full list was thinned out, with actives kept by preference.
QUANTITY MEASURED: inhibition (%)

{"columns": ["COMPOUND", "VALUE OBSERVED"],
 "data": [
  ["COc1ccc(CC(=O)N2N=C(C)CC2(O)C(F)(F)F)cc1 (stereo not given)", -7.36],
  ["COc1ccc(C(=O)CCc2ccccc2O)c(OC)c1", -6.58],
  ["Cc1nc(N)sc1-c1ccccc1", -2.59],
  ["O=C(COC(=O)CNS(=O)(=O)c1ccccc1)NC12CC3CC(CC(C3)C1)C2", -4.78],
  ["COC(=O)Nc1ccc(S(=O)(=O)N2CCN(CCN3C(=O)C4C5C=CC(C5)C4C3=O)CC2)cc1 (stereo not given)", -1.58],
  ["COc1c(C(C)C)oc2cc3oc(=O)ccc3cc12", 0.79],
  ["CCS(=O)(=O)N1CCCC(C(=O)NCCCN(C)Cc2ccccc2)C1 (stereo not given)", 0.57],
  ["Cc1c(/C=N/N2C(=O)C3C4C=CC(C4)C3C2=O)c2ccccc2n1C (stereo not given)", 0.26],
  ["CC(C)C(=O)Nc1nnc(Sc2ccc(N(C)C)cc2)s1", -6.47],
  ["CCOC(=O)Cn1c(SC)nc2sc3c(c2c1=O)CC(C)(C)OC3", -4.5],
  ["CCN(CCCCOC(=O)c1ccc(OC)c(OC)c1)C(C)Cc1ccc(OC)cc1 (stereo not given)", -2.66],
  ["COC(=O)c1cccc(C(=O)N2CCC(CCC(=O)NCc3ccc(F)cc3)CC2)c1", -6.42],
  ["CC1=NN(C(=O)CCc2ccccc2O)C(O)(C(F)(F)F)C1 (stereo not given)", 18.2],
  ["NC(Cc1ccccc1)c1csc(Nc2cc(Oc3ccccc3)ncn2)n1 (stereo not given)", -2.31],
  ["CSc1ncccc1C(=O)Nc1nc2ccc(F)cc2s1", 7.17],
  ["CC(C)N1CCC(=NNc2ccc([N+](=O)[O-])cc2S(=O)(=O)N2CCOCC2)CC1", 1.91],
  ["COc1ccc(C2C3=C(OC(C)=O)c4ccccc4C3=Nc3c2c(=O)n(C)c(=O)n3C)cc1 (stereo not given)", -3.27],
  ["CC(=O)CC[C@@H](C)O[C@@H]1OC(C)[C@H](O)CC1O (stereo not given in full)", 1.06],
  ["CSc1ncccc1C(=O)NCC(c1ccco1)N1CCCCC1 (stereo not given)", 2.84],
  ["N#CC1=C(N)OC2=C(C(=O)CCC2)C1C1CC=CCC1 (stereo not given)", 20],
  ["Cc1ccc(C=O)c([B-](F)(F)F)c1", -1.79],
  ["COc1ccc(C2CC(c3cccs3)Nc3nnnn32)cc1 (stereo not given)", -1.58],
  ["O=C(O)c1ccc(OCC2CCCO2)cc1 (stereo not given)", -7.47],
  ["CC1=C(C(=O)Nc2cccc(C(=O)NCC(C)c3ccccc3)c2)SCCO1 (stereo not given)", 18.4],
  ["CCNc1nc(N)nc(-c2cc(Cl)ccc2OC)n1", -13.4],
  ["O=C(N/N=C1\\CCSC1)c1cc(Cl)ccc1O", -2.2],
  ["c1ccc(-c2ccc3c(c2)NC(C2Nc4cc(-c5ccccc5)ccc4O2)O3)cc1 (stereo not given)", -3.71],
  ["COC(=O)C1=C(C(=O)c2ccc(C)cc2)C(c2ccccc2)n2nnnc2N1 (stereo not given)", -7.42],
  ["COc1ccc(S(=O)(=O)N2CCOCC2)cc1NC(=O)Cc1c(F)cccc1Cl", 20.4],
  ["O=C(COC(=O)C12CC3CC(CC(O)(C3)C1)C2)NC12CC3CC(CC(C3)C1)C2", 14.8],
  ["Cc1cc(-c2nnc(CCC(=O)NC(c3ccccc3)c3ccccc3)o2)no1", 5.3],
  ["COc1ccc(CC(=O)NCc2nnc(SCC(=O)Nc3nccs3)n2C)cc1", -1.92],
  ["CC1(C)OC(=O)C(=CSc2ccc(C(C)(C)C)cc2)C(=O)O1", -7.26],
  ["O=C(CNCCO)NC12CC3CC(CC(C3)C1)C2", 1.03],
  ["O=C1C=C(NCCNc2c(F)c(F)c(CO)c(F)c2F)CCC1", 16.1],
  ["COc1ccc(C(=O)NC(C)CCc2ccccc2)c(OC)c1 (stereo not given)", 35.8],
  ["O=C(OCc1cn([C@H]2C[C@H](c3ccccc3)N(C(=O)c3cccs3)C[C@@H]2O)nn1)c1ccccc1", 2.92],
  ["CCCN(CCC)C(=O)C1c2ccccc2Oc2ccccc21", 151],
  ["COc1ccc(C(=O)NCc2nnc(SCCOc3ccccc3)n2C)cc1", 19.3],
  ["CCOC(=O)CC(NC(=O)C1c2ccccc2Oc2ccccc21)c1ccc(C)cc1 (stereo not given)", -23.2]
]}
